tested on: SUDHL10; experiment: Induction of caspase-3/7 activity (Caspase-Glo 3/7), SUDHL10; format: cell-based; details: Homo sapiens, SU-DHL10, 3 h, caspase-3/7 induction, SUDHL10 cells, 3 h treatment; median
PROPERTY MEASURED: EC50 (µM)
API: value field is a number in µM; no unit string.

Take a look at these entries with their results.
{"MOLECULE": "CN1CCCn2c(C(=O)O)c(CCCOc3cccc4ccccc34)c3cccc(c32)-c2c(CN3CCOCC3)nn(C)c2C1 (racemic) [Example 1-42]", "UNIT OF MEASURE": "µM", "EC50": 14.9}
{"MOLECULE": "Cc1cc(OCCCc2c(C(=O)O)n3c4c(cccc24)-c2c(C)nn(C)c2COCCCC3)cc(C)c1Cl (racemic) [Example 009]", "UNIT OF MEASURE": "µM", "EC50": 17.8}

Continue with the next molecule.
Task: Please report the recorded EC50 for Cn1nc(CN2CC(F)(F)C2)c2c1COCCCCn1c(C(=O)O)c(CCCOc3cccc4ccccc34)c3cccc-2c31 (racemic) [Example 180] .
Result: 28.2
